Test: Evaluation of storage stability of ink (40° C. for 3 months, insoluble matter and clogging)
Assay type: physicochemical
Conditions: recording liquid stored at 40° C. for 3 months; insoluble matter and clogging
attribute.measured: (C) storage stability

// solved cases for (C) storage stability follow
{"columns": ["compound", "(C) storage stability"],
 "data": [
  ["Cc1c(N=Nc2cc(C(=O)O)ccc2C(=O)O)c(O)n(CCCNc2nc(NCCn3c(O)c(N=Nc4cc(C(=O)O)ccc4C(=O)O)c(C)c(C#N)c3=O)nc(NCCn3c(O)c(N=Nc4c(C(=O)O)cccc4C(=O)O)c(C)c(C#N)c3=O)n2)c(=O)c1C#N [Compound 274]", "Δ"],
  ["CCCCc1c(N=Nc2cc(C(=O)O)ccc2C(=O)O)c(O)n(CCNc2nc(Cl)nc(NCCn3c(O)c(N=Nc4cc(C(=O)O)ccc4C(=O)O)c(CCCC)c(C#N)c3=O)n2)c(=O)c1C#N", "Δ"],
  ["Cc1c(N=Nc2cc(C(=O)O)ccc2C(=O)O)c(O)n(CCNc2nc(O)nc(NCCn3c(O)c(N=Nc4cc(C(=O)O)ccc4C(=O)O)c(C)c(C#N)c3=O)n2)c(=O)c1C#N", "Δ"],
  ["CCc1c(N=Nc2cc(C(=O)O)ccc2C(=O)O)c(O)n(CCNC(=O)c2cc(C(=O)O)c(C(=O)NCCn3c(O)c(N=Nc4cc(C(=O)O)ccc4C(=O)O)c(CC)c(C#N)c3=O)cc2C(=O)O)c(=O)c1C#N", "◯"],
  ["Cc1c(N=Nc2cc(C(=O)O)ccc2C(=O)O)c(O)n(CCCCCCNC(=O)c2cc(C(=O)NCCCCCCn3c(O)c(N=Nc4cc(C(=O)O)ccc4C(=O)O)c(C)c(C#N)c3=O)c(C(=O)O)cc2C(=O)O)c(=O)c1C#N", "◯"]
]}

## Task Complete the entry with (C) storage stability for Cc1c(N=Nc2cc(C(=O)O)ccc2C(=O)O)c(O)n(CCNc2nc(Cl)nc(NCCn3c(O)c(N=Nc4cc(C(=O)O)ccc4C(=O)O)c(C)c(C(N)=O)c3=O)n2)c(=O)c1C(N)=O
## Result Δ

## Task Complete the entry with (C) storage stability for CCc1c(N=Nc2cc(C(=O)O)ccc2C(=O)O)c(O)n(CCCNC(=O)c2cc(C(=O)O)c(C(=O)NCCCn3c(O)c(N=Nc4cc(C(=O)O)ccc4C(=O)O)c(C)c(C#N)c3=O)cc2C(=O)O)c(=O)c1C#N
## Result ◯

## Task Complete the entry with (C) storage stability for CCCCc1c(N=Nc2cc(C(=O)O)ccc2C(=O)O)c(O)n(CCNC(=O)c2cc(C(=O)O)c(C(=O)NCCn3c(O)c(N=Nc4cc(C(=O)O)ccc4C(=O)O)c(CCCC)c(C#N)c3=O)cc2C(=O)O)c(=O)c1C#N
## Result ◯

## Task Complete the entry with (C) storage stability for Cc1c(N=Nc2cccc(C(=O)O)c2C(=O)O)c(O)n(C(=O)O)c(=O)c1C#N
## Result Δ
